Tested on: A549
assay_summary: NCI tumour cell line growth inhibition, 48 h
The source made the active and inactive calls. Cut-off read from the data, not from the text of the source: active = GI50 up to about 1.1 µM and inactive = higher.
The categories you may choose from are 1.0 for active, 0.0 for inactive

Prompt: Hi team, can someone confirm the assay call for CCOC1OC(COC(=O)C(C)(C)C)C(O)CC1n1cc(C)c(=O)[nH]c1=O (stereo not given) ?
Response: 0.0

Prompt: Entry COC(=O)C(Cc1nc2ccc(Cl)cc2nc1O)C(=O)C(=O)Nc1cc(C)ccc1C (stereo not given) : call = ?
Response: 0.0

Prompt: Lab log entry: Cc1nc(N/N=C/c2ccccc2Cl)[nH]c(=O)c1CCO — outcome as called in the assay?
Response: 0.0

Prompt: # lookup: test call for CCOC1NC(=O)Oc2cc3ccccc3cc21 (stereo not given)
Response: 0.0

Prompt: Status in this test for O=C(O)/C=C\C(=O)Nc1ccc2c(c1)C(=O)c1cc(F)ccc1-2 ?
Response: 0.0

Prompt: Please state the recorded outcome for this molecule: O=C(c1ccc(Cl)cc1)c1ccc(OCC(=O)N2CCN(c3ccccc3)CC2)cc1
Response: 0.0

Prompt: Could you please tell me the result logged for CCCCSc1n/c(=C\c2ccc(N(C)C)cc2)c2nnnn12 in this assay?
Response: 0.0

Prompt: // param item: CO[C@H]1C=C[C@@]23c4cc5c(cc4CO[C@]2(O)CN(C)[C@H]3C1)OCO5 ; yields the recorded call
Response: 0.0

Prompt: Would you mind telling me which call this test gave CSCSCC(CO)NC(=O)/C=C/c1c(C)nc(O)nc1O (stereo not given) ?
Response: 0.0

Prompt: Answer briefly: the call reported for COc1cc(C2C(=O)C(Cl)N2Nc2nc(C)cc(O)n2)cc(OC)c1OC (stereo not given) in this assay.
Response: 0.0

Prompt: Fill in: this test's call for CC(=O)[C@H]1CCC2[C@@H]3CC=C4C(O)C(OS(=O)(=O)O)CC[C@]4(C)C3CC[C@@]21C (stereo not given in full) is ___
Response: 0.0

Prompt: I'd appreciate the recorded outcome for OC(c1ccccn1)C1CNc2ccccc21 (stereo not given) from this test.
Response: 0.0

Prompt: # fetch the recorded call for O=c1cc(-c2ccccc2)c2ccc(O)c(CN(CCCl)CCCl)c2o1 here
Response: 0.0

Prompt: Per the records of this test, what outcome belongs to c1ccc2c(c1)Oc1cccc3cccc-2c13 ?
Response: 0.0

Prompt: Per the records of this test, what outcome belongs to CC(=O)/C(=C(/Br)I)c1ccccc1 ?
Response: 0.0

Prompt: // return assay outcome for CN(C)c1ccc(/C=C2\C[N+](C)(C)C/C(=C\c3ccc(N(C)C)cc3)C2=O)cc1
Response: 0.0

Prompt: Would you mind telling me which call this test gave CCOC(=O)c1c(C)[n+]([O-])c2cc(Cl)c(Cl)cc2[n+]1[O-] ?
Response: 0.0

Prompt: For COC1=CC(=O)c2ccc(C(C)C)cc2C1(C)C1=NC(C)(C)CO1 (stereo not given) , which call appears in the assay record?
Response: 0.0

Prompt: Which outcome did this test record for the molecule NS(=O)(=O)c1cc2c(cc1Cl)NC(C(=O)c1cc(=O)c3ccc(O)cc3o1)=NS2(=O)=O ?
Response: 0.0

Prompt: # outcome recorded in this test, key = CCN1CCC(O)(/C=C/c2ccc(C)cc2)C(C(=O)/C=C/c2ccc(C)cc2)C1 (stereo not given)
Response: 0.0

Prompt: Lab log entry: CCN(CC)C(=O)c1cc(OC(C)C)ccc1-c1c(C)cc(OC(C)C)c(OC)c1OC — outcome as called in the assay?
Response: 0.0

Prompt: Could you please tell me the result logged for CC1=NN(C(=O)c2ccccc2O)C(c2ccccc2Cl)C1C(=O)Nc1ccccc1 (stereo not given) in this assay?
Response: 1.0

Prompt: I'd appreciate the recorded outcome for Cc1cn(C2CC(N/C(=N/C#N)NCC3OC(n4cnc5c(N)ncnc54)CC3O)C(CO)O2)c(=O)[nH]c1=O (stereo not given) from this test.
Response: 0.0

Prompt: Hi team, can someone confirm the assay call for O=C(O)c1cc(-c2ccc3cc4c(cc3c2)OCO4)nc2ccccc12 ?
Response: 0.0

Prompt: Hi, do you know how Cc1cc(O)cc(O)c1C(=O)O[C@]1(C)C(=O)C=C2C=C(/C=C/C(=O)O)OC=C2C1=O came out in this test?
Response: 0.0

Prompt: Query: recorded result category for CN1C(c2ccccc2)CS(=O)(=O)CS1(=O)=O (stereo not given) in this test
Response: 0.0

Prompt: What outcome does the record of this test show for COC1CC(OC)C2OC(c3ccccc3)OCC2O1 (stereo not given) ?
Response: 0.0

Prompt: Field: outcome | Entry: CC[C@](O)(C(=O)O)c1cc2n(c(=O)c1CO)Cc1cc3ccccc3nc1-2
Response: 1.0

Prompt: Which outcome was entered for the molecule COc1ccc(C(=O)C(c2ccc(OC)cc2)C2(O)C(=O)Nc3c(Cl)cc(Cl)cc32)cc1 (stereo not given) in this test?
Response: 0.0

Prompt: What did this assay record as the result for O=C1C[C@@]23CCC4(CC2=CCC[C@H]3O1)OCCO4 ?
Response: 0.0

Prompt: Per the records of this test, what outcome belongs to C=C1C(=O)OC2CC3(C)CCCC(C)C3=CC12 (stereo not given) ?
Response: 0.0

Prompt: Dear colleague, could you share the recorded outcome for CC(C)OP(=O)(OC(C)C)c1nn(-c2ccc([N+](=O)[O-])cc2)c(=N)s1 when you have a moment?
Response: 0.0

Prompt: Look up the recorded call for CCc1ccccc1N1CCN(C(=O)c2cc(OC)c(OC)c(OC)c2)CC1 in this test.
Response: 1.0

Prompt: Recorded test call requested for c1ccc2c(c1)-c1nc3ccccc3cc1C2N1CCOCC1 (stereo not given)
Response: 0.0

Prompt: Answer briefly: the call reported for CCOC(=O)c1nc2ccccc2nc1Nc1ccc(OC)cc1 in this assay.
Response: 0.0

Prompt: Hey, what did the test say about C/C(CC(=O)Nc1cccc([N+](=O)[O-])c1)=N/NC(N)=S ?
Response: 0.0

Prompt: Called result for N#Cc1c(CC(=O)O)cc(=O)n2c1[nH]c1ccccc12
Response: 0.0

Prompt: Recorded call for CCOC(=O)CCC(NC(=O)c1ccc(CNc2nc3cc(N)cc(N)c3nc2-c2ccccc2)cc1)C(=O)OCC (stereo not given) ?
Response: 0.0

Prompt: Name the outcome recorded for COc1cc2ccc(CC(N)=O)cc2cc1OC in the assay.
Response: 0.0

Prompt: What classification did N=c1c2c(=S)n(-c3ccccc3)c(=S)n(-c3ccccc3)c2nc(SCCCN2CCCCC2)n1-c1ccccc1 end up with in this test?
Response: 0.0
